- Test: Cytotoxicity assay in MT4 cells
- Format: cell-based
- Test Parameters: human, MT4 cells (proliferating human T-cell line), CellTiter-Glo
Threshold 50 µM. CC50 below it: true. CC50 at it or above: false.

Examples with answers:
## Task Strictly below 50 µM in CC50? Cc1nnc(C(=O)NC(C)(C)c2nc(C(=O)NCc3ccc(F)cc3)c(O)c(=O)n2C)o1 [RAL, raltegravir]
## Result false

## Task Is it true that CC50 reported for Cc1ccc(C2CC2)c(-c2cc(F)c3c(c2C)CCCO3)c1[C@H](OC1CC1)C(=O)O [MUT916] is less than 50 µM?
## Result false

## Task State whether 50 µM exceeds CC50 recorded for Cc1ccc(C2CC2)c(-c2ccc3c(c2C)CCCO3)c1[C@H](OC(C)(C)C)C(=O)O [MUT871] .
## Result true

Next:
## Task Just wondering, is CC50 of Cc1ccc(C2CC2)c(-c2ccc3c(c2C)CCCO3)c1[C@H](OC1CC1)C(=O)O [MUT884] below 50 µM?
## Result false

## Task is_below(CC50, 50 µM) for Cc1ccc(C2CC2)c(-c2ccc3c(c2)CCCO3)c1[C@H](OC(C)(C)C)C(=O)O [BDM-2] ?
## Result false

## Task Would you kindly verify if CC50 of Cc1ccc(C2CC2)c(-c2ccc3c(c2)CCCO3)c1[C@H](OC1CC1)C(=O)O [MUT872] is strictly less than 50 µM?
## Result false

## Task I'd appreciate it if you could check whether Cc1nc2ccccc2c(-c2ccc3c4c(ccnc24)CCO3)c1[C@H](OC(C)(C)C)C(=O)O [BI-224436, reference compound] has CC50 smaller than 50 µM.
## Result false

## Task Would you kindly verify if CC50 of Cc1cc(NS(=O)(=O)CC2CCCCC2)c(C)c(C(OC(C)(C)C)C(=O)O)c1-c1ccc2c(c1)CCCO2 (stereo not drawn) [S-I-82, reference compound] is strictly less than 50 µM?
## Result true

----------
- System: primary HIV-1 isolates with polymorphisms at IN positions 124 and 125
- Test: Multiple-round infection of MT4 cells with primary HIV-1 isolates polymorphic at IN positions 124 and 125
- Type: cell-based
- Test Parameters: primary isolate, IN 124/125 TA
Fold change in EC50 relative to parental NL4-3, vTA_1 (B) by entry:

## Task Which value of Fold change in EC50 relative to parental NL4-3, vTA_1 (B) has been reported for Cc1ccc(C2CC2)c(-c2ccc3c(c2C)CCCO3)c1[C@H](OC(C)(C)C)C(=O)O in the records?
## Result 2

## Task What does the record list as Fold change in EC50 relative to parental NL4-3, vTA_1 (B) for Cc1cc(NS(=O)(=O)CC2CCCCC2)c(C)c(C(OC(C)(C)C)C(=O)O)c1-c1ccc2c(c1)CCCO2 (centres unmarked) [S-I-82, reference compound] ?
## Result 3

## Task Recorded Fold change in EC50 relative to parental NL4-3, vTA_1 (B) for Cc1ccc(C2CC2)c(-c2ccc3c(c2C)CCCO3)c1[C@H](OC1CC1)C(=O)O , please?
## Result 1

## Task Which Fold change in EC50 relative to parental NL4-3, vTA_1 (B) value is on record for Cc1ccc(C2CC2)c(-c2ccc3c(c2)CCCO3)c1[C@H](OC(C)(C)C)C(=O)O ?
## Result 2

## Task Recorded Fold change in EC50 relative to parental NL4-3, vTA_1 (B) of Cc1ccc(C2CC2)c(-c2ccc3c(c2)CCCO3)c1[C@H](OC1CC1)C(=O)O , please.
## Result 2

## Task Look up Fold change in EC50 relative to parental NL4-3, vTA_1 (B) for this compound: Cc1ccc(C2CC2)c(-c2cc(F)c3c(c2C)CCCO3)c1[C@H](OC1CC1)C(=O)O
## Result 2

## Task Item under review: Cc1nc2ccccc2c(-c2ccc3c4c(ccnc24)CCO3)c1[C@H](OC(C)(C)C)C(=O)O [BI-224436, reference compound] . Reported Fold change in EC50 relative to parental NL4-3, vTA_1 (B)?
## Result 2

Further cases:
## Task I would be grateful if you could share the reported Fold change in EC50 relative to parental NL4-3, vTA_1 (B) for C[C@@H]1CCO[C@H]2Cn3cc(C(=O)NCc4ccc(F)cc4F)c(=O)c(O)c3C(=O)N12 [DTG, dolutegravir, reference compound] .
## Result 1

----------
- System: primary HIV-1 isolates with polymorphisms at IN positions 124 and 125
- Test: Multiple-round infection of MT4 cells with primary HIV-1 isolates polymorphic at IN positions 124 and 125
- Format: cell-based
- Test Parameters: primary isolate, IN 124/125 NA
Endpoint: Fold change in EC50 relative to parental NL4-3, vNA_2 (CRF02)
Please give only the number in your answer, with no unit.

Here is how some molecules turned out for Fold change in EC50 relative to parental NL4-3, vNA_2 (CRF02).
## Task Return reported Fold change in EC50 relative to parental NL4-3, vNA_2 (CRF02); argument: Cc1ccc(C2CC2)c(-c2ccc3c(c2C)CCCO3)c1[C@H](OC(C)(C)C)C(=O)O
## Result 3

## Task Reported Fold change in EC50 relative to parental NL4-3, vNA_2 (CRF02), molecule C[C@@H]1CCO[C@H]2Cn3cc(C(=O)NCc4ccc(F)cc4F)c(=O)c(O)c3C(=O)N12 [DTG, dolutegravir, reference compound] : ____
## Result 2

## Task Quick check: Fold change in EC50 relative to parental NL4-3, vNA_2 (CRF02) of Cc1ccc(C2CC2)c(-c2ccc3c(c2)CCCO3)c1[C@H](OC1CC1)C(=O)O ?
## Result 2

## Task Record request: Fold change in EC50 relative to parental NL4-3, vNA_2 (CRF02) value, item Cc1nc2ccccc2c(-c2ccc3c4c(ccnc24)CCO3)c1[C@H](OC(C)(C)C)C(=O)O [BI-224436, reference compound]
## Result 2

## Task Query: Fold change in EC50 relative to parental NL4-3, vNA_2 (CRF02); subject: Cc1ccc(C2CC2)c(-c2cc(F)c3c(c2C)CCCO3)c1[C@H](OC1CC1)C(=O)O
## Result 10

***
## Task // query Fold change in EC50 relative to parental NL4-3, vNA_2 (CRF02) value for entry Cc1ccc(C2CC2)c(-c2ccc3c(c2)CCCO3)c1[C@H](OC(C)(C)C)C(=O)O
## Result 3

## Task Look up Fold change in EC50 relative to parental NL4-3, vNA_2 (CRF02): Cc1cc(NS(=O)(=O)CC2CCCCC2)c(C)c(C(OC(C)(C)C)C(=O)O)c1-c1ccc2c(c1)CCCO2 (centres unmarked) [S-I-82, reference compound]
## Result 23

## Task # Fold change in EC50 relative to parental NL4-3, vNA_2 (CRF02) lookup, item Cc1ccc(C2CC2)c(-c2ccc3c(c2C)CCCO3)c1[C@H](OC1CC1)C(=O)O
## Result 4

----------
- System: NL4-3 HIV-1 with INLAI-selected IN single point mutations
- Assay type: cell-based
Endpoint: EC50 fold change compared to wild type NL4-3, N222K

## Task // returns reported EC50 fold change compared to wild type NL4-3, N222K for input Cc1nc2ccccc2c(-c2ccc3c4c(ccnc24)CCO3)c1[C@H](OC(C)(C)C)C(=O)O [BI-224436, reference compound]
## Result 2

***
## Task Give the measured EC50 fold change compared to wild type NL4-3, N222K of Cc1ccc(C2CC2)c(-c2ccc3c(c2C)CCCO3)c1[C@H](OC(C)(C)C)C(=O)O .
## Result 3

## Task Quick one: EC50 fold change compared to wild type NL4-3, N222K for Cc1ccc(C2CC2)c(-c2ccc3c(c2C)CCCO3)c1[C@H](OC1CC1)C(=O)O ?
## Result 3

## Task Fill in: EC50 fold change compared to wild type NL4-3, N222K of Cc1ccc(C2CC2)c(-c2ccc3c(c2)CCCO3)c1[C@H](OC1CC1)C(=O)O is ___
## Result 2

## Task Which EC50 fold change compared to wild type NL4-3, N222K is listed for Cc1ccc(C2CC2)c(-c2ccc3c(c2)CCCO3)c1[C@H](OC(C)(C)C)C(=O)O ?
## Result 2

## Task Please look up its EC50 fold change compared to wild type NL4-3, N222K: Cc1ccc(C2CC2)c(-c2cc(F)c3c(c2C)CCCO3)c1[C@H](OC1CC1)C(=O)O
## Result 3

## Task For the molecule Cc1cc(NS(=O)(=O)CC2CCCCC2)c(C)c(C(OC(C)(C)C)C(=O)O)c1-c1ccc2c(c1)CCCO2 (stereo not shown) [S-I-82, reference compound] , what EC50 fold change compared to wild type NL4-3, N222K is on record?
## Result 1

----------
Reported values of IN multimerization Plateau for individual entries
- Target Entity: HIV-1 IN (Human immunodeficiency virus type 1 group M subtype B, UniProt P12497)
- Construct: made in house
- Test: HTRF IN multimerization assay
- Assay type: biochemical
- Test Parameters: maximum multimerization reached versus baseline; mean ± SD
The answer consists of two parts: a number and, after it, its unit.

## Task Can you look up the measured IN multimerization Plateau of Cc1ccc(C2CC2)c(-c2ccc3c(c2)CCCO3)c1[C@H](OC(C)(C)C)C(=O)O [BDM-2] for me?
## Result 560 ± 150%

## Task // IN multimerization Plateau lookup, key: Cc1ccc(C2CC2)c(-c2ccc3c(c2C)CCCO3)c1[C@H](OC1CC1)C(=O)O [MUT884]
## Result 400 ± 71%

## Task Name the reported IN multimerization Plateau value associated with the compound Cc1cc(NS(=O)(=O)CC2CCCCC2)c(C)c(C(OC(C)(C)C)C(=O)O)c1-c1ccc2c(c1)CCCO2 (stereo not shown) [S-I-82, reference compound]
## Result 500 ± 43%

## Task May I ask what IN multimerization Plateau has been recorded for Cc1nc2ccccc2c(-c2ccc3c4c(ccnc24)CCO3)c1[C@H](OC(C)(C)C)C(=O)O [BI-224436, reference compound] ?
## Result 670 ± 210%

## Task Quick one: IN multimerization Plateau for Cc1ccc(C2CC2)c(-c2ccc3c(c2)CCCO3)c1[C@H](OC1CC1)C(=O)O [MUT872] ?
## Result 440 ± 48%

Further cases:
## Task State the recorded IN multimerization Plateau for this entry: Cc1ccc(C2CC2)c(-c2ccc3c(c2C)CCCO3)c1[C@H](OC(C)(C)C)C(=O)O [MUT871]
## Result 440 ± 53%

## Task Would you kindly share the measured IN multimerization Plateau for Cc1ccc(C2CC2)c(-c2cc(F)c3c(c2C)CCCO3)c1[C@H](OC1CC1)C(=O)O [MUT916] ?
## Result 370 ± 60%
